- target.system: T1, mouse Sortilin expressed on 293 / HEK293T cells (mouse, UniProt Q6PHU5 74-825)
- T1 construct: full-length recombinant mouse Sortilin; also called mSort; msSort
- assay.overview: FACS, 293 cells;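 further: antibodies at 10 µg/ml bound to cells for 1 h on ice, detected with PE-labelled anti-human secondary antibody by flow cytometry, reported as mean fluorescence intensity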
We use 20000 as the dividing line for MFI: on or above the line is satisfied, below is not satisfied.

INPUT: Determine whether measured MFI meets or exceeds 20000 for S-19 (antibody, V domains shown, IgG) VH: QVQLVQSGAEVKKPGSSVKVSCKASGGTFSSYAISWVRQAPGQGLEWMGGIIPIFGTASYAQKFQGRVTITADESTSTAYMELSSLRSEDTAVYYCARESRIPGSGYYYYYGMDVWGQGTTVTVSS VL: DIQMTQSPSSLSASVGDRVTITCRASQSISSYLNWYQQKPGKAPKLLIYSASSLQSGVPSRFSGSGSGTDFTLTISSLQPEDFATYYCQQTDGKPPTFGGGTKVEIK
OUTPUT: satisfied

Next:
INPUT: I'd appreciate it if you could say whether S-14 (antibody, V domains shown, IgG) VH: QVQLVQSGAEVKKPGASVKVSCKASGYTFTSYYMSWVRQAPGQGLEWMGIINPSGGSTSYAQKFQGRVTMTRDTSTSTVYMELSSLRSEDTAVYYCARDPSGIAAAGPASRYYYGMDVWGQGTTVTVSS VL: DIQMTQSPSSLSASVGDRVTITCRASQSISSYLNWYQQKPGKAPKLLIYGASSLQSGVPSRFSGSGSGTDFTLTISSLQPEDFATYYCQQHYVGPFTFGGGTKVEIK has MFI at least equal to 20000.
OUTPUT: not satisfied

INPUT: Is reported MFI greater than or equal to 20000 here: S-61 (antibody, V domains shown, IgG) VH: QVQLQESGPGLVKPSETLSLTCAVSGYSISSGYYWGWIRQPPGKGLEWIGSIYHSGSTYYNPSLKSRVTISVDTSKNQFSLKLSSVTAADTAVYYCARGSPRFYYGSGSYLDLFDIWGQGTMVTVSS VL: EIVMTQSPATLSVSPGERATLSCRASQSVSSNLAWYQQKPGQAPRLLIYGASTRATGIPARFSGSGSGTEFTLTISSLQSEDFAVYYCQEYLNYPITFGGGTKVEIK
OUTPUT: satisfied

INPUT: Could you please find out whether S-51 (antibody, V domains shown, IgG) VH: QVQLVESGGGVVQPGRSLRLSCAASGFTFSSYGMHWVRQAPGKGLEWVAVISYDGSNKYYADSVKGRFTISRDNSKNTLYLQMNSLRAEDTAVYYCAKGLEYYDSSRLYYPYYYYMDVWGKGTTVTVSS VL: EIVLTQSPATLSLSPGERATLSCRASQSVSSYLAWYQQKPGQAPRLLIYDASKRATGIPARFSGSGSGTDFTLTISSLEPEDFAVYYCQQRSNYPITFGGGTKVEIK has MFI that meets 20000 or exceeds it?
OUTPUT: satisfied

INPUT: Check this binder for MFI at or above 20000: S-73 (antibody, V domains shown, IgG) VH: QVQLQESGPGLVKPSQTLSLTCTVSGGSISSGTYYWSWIRQHPGKGLEWIGYIYYSGSTYYNPSLKSRVTISVDTSKNQFSLKLSSVTAADTAVYYCARGVGRYRVADYWGQGTLVTVSS VL: EIVLTQSPATLSLSPGERATLSCRASQSVSSYLAWYQQKPGQAPRLLIYDASNRATGIPARFSGSGSGTDFTLTISSLEPEDFAVYYCQQASVYPPITFGGGTKVEIK
OUTPUT: not satisfied
